We begin with a simple list: items and their reported fold change.
- measurementProtocol: survival after telomere uncapping, modulators, primary screen, cell-based (AID 1259312);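 further: virus expresses mutant telomerase RNA that uncaps telomeres and kills cells; compound added 2 days after infection so exposure lasts 3 days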
- reportedConditions: HCT116 + Ad-hTR-mut, MTT, 5 d; at 10 µM, hits give high values
Among all 4,500 compounds or so, about 200 (4.4%) were called active. What follows is part of a selection rich in actives, with near analogues and random picks from the rest.
Returns: the value as a bare number; no unit string appended.

Reference set, count: 5
N=C(N)SCc1ccc(Cl)cc1Cl; -1.36
N#Cc1c(N)sc2c1CCCCC2; 3
Cn1cccc1/C=C1/C(=O)ON=C1c1ccccc1; -2.3
O=S(=O)(Nc1cc(Cl)cc(Cl)c1)c1cccs1; -1.41
N#Cc1sc2nc3c(cc2c1N)CCCC3; 1.19

What does the data say about its fold change? Entry: `CN1CCc2c(sc(N)c2C#N)C1` 1.58

For `O=C(C[n+]1ccccc1)c1cccs1` , what is its reported fold change? 4.15

// fold change lookup, key: `O=[N+]([O-])c1ccc(N2CCN(S(=O)(=O)c3ccc4ccccc4c3)CC2)cc1` -1.1

Give the measured fold change of `COCCNS(=O)(=O)c1cc(Cl)ccc1Cl` . 2.95

Quick one: fold change for CCOC(=O)C(C(C)=O)C(C(C)=O)C(=O)OCC (configuration not stated) ? 1.67

So what's the measured fold change for this one? `O=C(Cc1cccs1)NC1CCCCCC1` -2.19

Which fold change value is on record for `CCc1nnc(NS(=O)(=O)c2ccc(N)cc2)s1` ? 3.88

What value of fold change has been reported for the following compound? `c1ccc(CC2=NCCN2)cc1` -1.2

// returns reported fold change for input `CC(=O)NS(=O)(=O)c1ccc(N)cc1` -1.73

Look at this compound and give its reported fold change. O=C(Nc1ccc(I)cc1)C1CCCN1C(=O)c1cccs1 (configuration not stated) 1.51

Query: fold change; subject: Cn1c2c(c(=O)[nH]c1=O)C(c1ccccc1)C1=C(N2)c2ccccc2C1=O (configuration not stated) -6.31

---

- measurementProtocol: survival after telomere uncapping, modulators, primary screen, cell-based (AID 1259312)
- reportedConditions: HCT116 + Ad-hTR-mut, MTT, 5 d; at 10 µM
Among all 4,500 compounds or so, about 200 (4.4%) were called active.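 The calls were made as follows: active = cell survival measured by absorbance rises more than 2.5-fold over infected cells without compound; inactive = the rest.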 What follows is part of a selection rich in actives, with near analogues and random picks from the rest.
Allowed answers: active, inactive

Solved cases below.
O=c1cc(-c2cccc(O)c2)oc2cc(O)ccc12; inactive
O=S(=O)(Nc1ccc2c(c1)OCO2)c1ccc(Cl)cc1; inactive
O=[N+]([O-])c1cc(Cl)ccc1N1CCOCC1; inactive
O=C(O)/C=C/c1ccc(F)c(Br)c1; inactive
O=C(CN1CCOCC1)Nc1nccs1; active

How did this test come out for `O=S(=O)(Nc1ccc(F)c(Cl)c1)c1ccc(Cl)cc1` ? active

What call does the record list for `O=C(O)CCC(=O)Nc1nccs1` ? inactive

---

- measurementProtocol: survival after telomere uncapping, modulators, primary screen, cell-based (AID 1259312)
- reportedConditions: HCT116 + Ad-hTR-mut, MTT, 5 d; at 10 µM, hits give high values
Hit rate of the full screen: of about 4,500 compounds, about 200 (4.4%) were called active. Only a selection was taken, and actives are over-represented in it overall.
endpointName: fold change

COc1cc(OC)cc([C@@H]2[C@@H](C(C)(C)C)C(C#N)(C#N)[C@H]3C=Cc4ccccc4N23)c1; 1.39 (inactive)
Oc1ccc(Br)c(C=Nc2ccc(-c3ccc(N=Cc4cc(Br)ccc4O)cc3)cc2)c1; active
Cn1c(=O)oc2ccc(S(=O)(=O)Nc3ccc4c(c3)CCN4S(C)(=O)=O)cc21; -1.03 (inactive)
Oc1ccc(Br)cc1C=Nc1cc(Cl)ccc1Cl; inactive
O=[N+]([O-])c1ccc(O)c(C=Nc2ccc(I)cc2)c1; inactive

Query (compound): `O=C(O)CSc1nc(SCc2ccccc2)nc2ccccc12` ; field requested: fold change 1.5 (inactive)

# input compound: `COC(=O)c1ccc(=O)oc1` ; wanted: its fold change -1.06 (inactive)

Fill in the blank: the reported fold change of `O=C(COc1cccc2ccccc12)N1CCc2ccccc21` is ____. -1.51 (inactive)

Value lookup for fold change; key = `Cn1c(SCc2nc3ccc([N+](=O)[O-])cc3[nH]2)nc2ccccc21` -1.29 (inactive)

Item under review: `C1=CN(c2ccccc2)C(C=NCc2ccccc2)=CS1` . Reported fold change? 3.25 (active)

Entry `O=C1NC(=S)N/C1=C\c1cc(Br)cc(Br)c1O` has what fold change? -1.6 (inactive)

Entry `O=C1NC(=S)N/C1=C/c1c(F)cccc1Cl` : reported fold change = ? 1.33 (inactive)

Data request, read-out fold change, for CN=C1/C(=N/O)C=CC2CCCCC12 (centres undefined) inactive

Given the compound `CC(C)(C)c1cc(Cl)cc(Cc2cc(C(C)(C)C)c(O)c(C(C)(C)C)c2)c1O` , what is its reported fold change? -1.42 (inactive)

Need fold change of `COc1ccc(OC)c(N=Cc2cc(Cl)cc(Cl)c2O)c1` , thanks. inactive

Given the compound `CC(=O)OC[C@H]1O[C@@H](n2cc(C)c(=O)[nH]c2=O)C[C@@H]1OC(C)=O` , what is its reported fold change? -1.48 (inactive)

Quick check: fold change of `Oc1c(Br)cc(Br)cc1C=Nc1ccc(Br)cc1` ? inactive

---

- measurementProtocol: survival after telomere uncapping, modulators, primary screen, cell-based (AID 1259312);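 further: virus expresses mutant telomerase RNA that uncaps telomeres and kills cells; compound added 2 days after infection so exposure lasts 3 days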
- reportedConditions: HCT116 + Ad-hTR-mut, MTT, 5 d; at 10 µM, hits give high values
Hit rate of the full screen: of about 4,500 compounds, about 200 (4.4%) were called active. The sample as a whole holds a higher share of actives than the screen did.
endpointName: fold change
Keep it simple and answer with nothing but the number.

# example entries with known answers
Clc1nc2ccccc2cc1C=Nc1ccc(Br)cc1; 3.97
O=C1CN(C(=O)Cn2c(=O)oc3ccccc32)c2ccccc2N1; -1.03
CN1CCN(c2nc3ccccc3nc2N2CCN(C)CC2)CC1; 2.65
O=S(=O)(Nc1nc2ccccc2nc1N1CCOCC1)c1ccccc1; -1.42
Clc1ccc(Cl)c(N=Cc2cc3ccccc3nc2Cl)c1; 1.49

Shift focus to the following entry.
# fold change lookup, item `c1ccc(-c2nc3ccccc3nc2-c2ccccc2)cc1` -1.02

---

- measurementProtocol: survival after telomere uncapping, modulators, primary screen, cell-based (AID 1259312);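 further: virus expresses mutant telomerase RNA that uncaps telomeres and kills cells; compound added 2 days after infection so exposure lasts 3 days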
- reportedConditions: HCT116 + Ad-hTR-mut, MTT, 5 d; at 10 µM, hits give high values
The whole screen tested about 4,500 compounds, of which about 200 (4.4%) were called active. For the sample, actives were picked, then their nearest neighbours and some compounds at random.
Reported fold change values are given for each entry in this list.
// print number alone

COC(=O)/C(C#N)=C\c1cccn1C; 4.23

Give its fold change value. Item: `CN(CCCN1c2ccccc2CCc2ccccc21)c1nc(-c2ccc(F)cc2)cs1` -1.32

Entry `O=C(O)c1cc2cc3c4c(c2oc1=O)CCCN4CCC3` has what fold change? 1.07

Need fold change, item `O=C1NC(=S)S/C1=C/c1ccc(-c2cccc(C(F)(F)F)c2)o1` 1.1

Recorded fold change of `O=C1CCCN1c1ccc(NS(=O)(=O)N2CCCCC2)cc1` , please. -1.3

May I ask what fold change has been recorded for `Nn1c(-c2cccs2)nc2ccccc2c1=O` ? -1.03

Fill blank: measured fold change of the molecule `C=CCNC(=O)c1nn(C)c(=O)c2ccccc12` is ____. -1.08

# input molecule: `O=[N+]([O-])c1ccc(Cl)c(S(=O)(=O)N2CCOCC2)c1` ; wanted: its fold change 3.45

Any idea what its fold change is? The molecule is O=C1C2C3c4ccccc4C(c4ccccc43)C2C(=O)N1c1ccc2ccccc2c1 (centres undefined) 3.16

---

- measurementProtocol: survival after telomere uncapping, modulators, primary screen, cell-based (AID 1259312);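 further: virus expresses mutant telomerase RNA that uncaps telomeres and kills cells; compound added 2 days after infection so exposure lasts 3 days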
- reportedConditions: HCT116 + Ad-hTR-mut, MTT, 5 d; at 10 µM
Screen size: about 4,500 compounds; about 200 (4.4%) were called active.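 The calls were made as follows: active = cell survival measured by absorbance rises more than 2.5-fold over infected cells without compound; inactive = the rest.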 The full list was thinned out, with actives kept by preference.
Log the outcome using a class from active, inactive

Consider the following illustrative entries.
Oc1ccc2ccccc2c1N=Nc1ccccc1; inactive
O=[N+]([O-])c1ccc(Nc2ccc(O)cc2)c([N+](=O)[O-])c1; inactive
O=c1[nH]c(=O)n([C@@H]2O[C@H](CO)[C@@H](O)[C@H]2O)cc1Br; inactive

Kindly provide the recorded test outcome for the following compound: `OCCOc1c(Cl)cc(Cl)c2cccnc12` inactive

Check the results log: what was the call for `CCOC(=O)c1sc(N)nc1C` ? inactive

Could you check what this test reported for `Cc1nc2ccc3ccccc3c2s1` ? inactive

What call does the record list for `Cc1cc(NS(=O)(=O)c2ccc(N)cc2)no1` ? inactive

Which outcome was assigned to `Cn1c(=O)c2c(nc(NCCOc3ccc(Cl)cc3)n2C)n(C)c1=O` in this test? inactive

Status in this test for `COc1ccc(OC)c(NS(=O)(=O)c2cc(Cl)ccc2Cl)c1` ? inactive

Which outcome was assigned to N#CC1=C(N)C(C#N)(C#N)C2=CCCC2C12CCCCC2 (stereo unspecified) in this test? inactive

GET /call?item= CC(=O)Nc1ccc(S(=O)(=O)N2CCCC2C(=O)NC2CC2)cc1 (stereo unspecified) returns the recorded outcome of this test. inactive
